experiment: StAR promoter reporter inhibitors, counter-screen for LRH-1 inverse agonist project, cell-based, luminescence, high throughput (AID 651611); details: StAR promoter luciferase reporter counterscreen, at 3.6 µM, active compounds read high

- Compound: "CCCc1cc(=O)oc2c(C)c(OCC(=O)NCCCn3ccnc3)ccc12"
  Value Unit: "%"
  inhibition: -1.87
- Compound: "CC(=O)ON=C1C=CC(=C(C#N)c2ccccc2)C=C1"
  Value Unit: "%"
  inhibition: 50.8
- Compound: "C=CC[n+]1c(-c2ccc(Cl)cc2Cl)csc1Nc1c(C)n(C)n(-c2ccccc2)c1=O"
  Value Unit: "%"
  inhibition: 10.3
- Compound: "COc1ccc(C2=Nn3c(nnc3-c3ccccc3OC)SC2)cc1OC"
  Value Unit: "%"
  inhibition: 52.6
- Compound: "O=c1c2ccccc2c(C=Nc2ccccc2O)c(O)n1-c1nccs1"
  Value Unit: "%"
  inhibition: 5.33
- Compound: "O=C(N/N=C/c1ccc([N+](=O)[O-])s1)C(O)c1ccccc1 (configuration not stated)"
  Value Unit: "%"
  inhibition: 25.9
- Compound: "COc1ccc(CNC(=O)O[C@@H]2C[C@H]3C(=O)N(c4ccccc4)C(=O)[C@H]3[C@@]3(CN(S(=O)(=O)c4ccc(C)cc4)C[C@H]3C)[C@@H]2O)cc1OC"
  Value Unit: "%"
  inhibition: 9.47
- Compound: "COc1ccc(CCC(=O)Nc2c(-c3ccc(N(C)C)cc3)[nH][nH]c2=O)cc1"
  Value Unit: "%"
  inhibition: 4.07
- Compound: "COc1cc(NCCCCCCN)c2ncccc2c1OC"
  Value Unit: "%"
  inhibition: 22.3
- Compound: "Cc1cc(NC(=O)CSc2nc3c(sc4ccccc43)c(=O)n2CCCN2CCOCC2)n[nH]1"
  Value Unit: "%"
  inhibition: 48
- Compound: "Cc1cc(C)c2c(NC(=O)CCl)nn(C)c2n1"
  Value Unit: "%"
  inhibition: 46.8
- Compound: "COc1cc2oc(-c3ccc(O)cc3)cc(=O)c2c(O)c1OC"
  Value Unit: "%"
  inhibition: 7

---

assay: StAR promoter reporter inhibitors, counter-screen for LRH-1 inverse agonist project, cell-based, luminescence, high throughput (AID 651611); details: StAR promoter luciferase reporter counterscreen, at 3.6 µM
Activity calls are given as the source filed them. Cut-off read from the data, not from the text of the source: active = inhibition above about 28%; inactive = the rest.
Outcome codes: active, inactive

- Compound: "CC(=O)Nc1ccc(-c2ccnc3c2CC(C(=O)NCc2ccco2)O3)cc1 (stereo not given)"
  Class Name: "active"
- Compound: "Cn1nc(-c2ccccn2)nc2c(=O)n(C)c(=O)nc1-2"
  Class Name: "active"
- Compound: "COc1ccc(CCNC(=O)CSc2nc3[nH]ncc3c(=O)n2-c2ccc(C)c(Cl)c2)cc1OC"
  Class Name: "inactive"
- Compound: "OCCCNc1cc(-c2ccnc(Nc3cccc(Cl)c3)n2)ccn1"
  Class Name: "active"
- Compound: "Cc1ccc(OCCC(=O)OCC(=O)Nc2ccc(N3CCOCC3)cc2)cc1"
  Class Name: "inactive"
- Compound: "O=C1C(=O)c2cccnc2-c2ncccc21"
  Class Name: "active"
- Compound: "Cn1c(CN2CCN(c3ccc(Cl)cc3)CC2)nc2ccccc21"
  Class Name: "inactive"
- Compound: "c1ccc(-c2nn(-c3ccccc3)[n+](-c3ccccc3)n2)cc1"
  Class Name: "inactive"
- Compound: "COc1ccc(NS(=O)(=O)c2ccc(-c3cnc(C4CC4)o3)cc2)cc1OC"
  Class Name: "active"
- Compound: "O=C(CSc1nc2cccc(F)c2c(=O)n1-c1ccccc1)Nc1ccc2c(c1)CCC2"
  Class Name: "inactive"
